Listed compounds paired with reported log10(EC50)
# Tested on: HBV rcDNA in HepDE19 cells
# PROTOCOL: HepDE19 assay with bDNA quantitation of HBV rcDNA
# Assay type: cell-based, hepatitis B virus (HBV)
# TEST_PARAMETERS: Hepatitis B virus, HepDE19, 168 h, inhibition of rcDNA formation in HepDE19 cells (HepG2 derived), Tet-free medium, 7 day incubation, Quantigene 2.0 bDNA readout, top concentration 25 μM; read-out: DE-19bDNA EC50
Please interpret these as log10 of EC50 where EC50 is in nM.

Solved entries (count: 10):
{"columns": ["COMPOUND", "NUMERIC_READOUT"],
 "data": [
  ["O=C(Nc1ccc(F)c(Cl)c1)N(CCCO)C1CCCc2[nH]c(=O)c3cc(F)ccc3c21 (stereo not shown)", 1.78],
  ["CN(C(=O)Nc1ccc(F)c(Cl)c1)[C@@H]1COCc2[nH]c(=O)c3cc(F)c(F)cc3c21 (single isomer, unassigned)", 1.00],
  ["CN(C(=O)Nc1ccc(F)c(Cl)c1)C1COCc2[nH]c(=O)c3ccccc3c21 (racemic)", 1.48],
  ["CC(C)CN(C(=O)Nc1ccc(F)c(Cl)c1)C1CCCc2[nH]c(=O)cc(C(F)(F)F)c21 (stereo not shown)", 2.72],
  ["CN(C(=O)Nc1ccc(F)c(Cl)c1)[C@@H]1COCc2nc(OCCN)c3cc(F)c(F)cc3c21", 1.81],
  ["CN(C(=O)Nc1ccc(F)c(Cl)c1)C1COCc2[nH]c(=O)c3cc(F)ccc3c21 (racemic)", 1.30],
  ["CN(C(=O)N1Cc2ccc(Cl)cc2C1)[C@@H]1COCc2[nH]c(=O)c3cc(F)c(F)cc3c21", 3.77],
  ["CC(C)CN(C(=O)Nc1ccc(F)c(Cl)c1)C1CCc2[nH]c(=O)cc(C(F)(F)F)c21 (stereo not shown)", 2.96],
  ["CN(C(=O)Nc1ccc(F)c(Cl)c1)C1COC(O)c2[nH]c(=O)c3cc(F)c(F)cc3c21 (stereo not shown)", 1.30],
  ["CC1Cc2[nH]c(=O)c3ccccc3c2C(N(C)C(=O)Nc2ccc(F)c(Cl)c2)C1 (racemic)", 3.46]
]}

Data request: Record lookup: for HBV rcDNA in HepDE19 cells, what log10(EC50) belongs to CN(C(=O)Nc1ccc(F)c(Cl)c1)C1COCc2[nH]c(=O)c3cscc3c21 (stereo not shown) ?
Data returned: 1.30

These measurements were taken from patent US20230108906A1.
